# testedSystem: h-5-HT6 receptor (Homo sapiens, UniProt P50406)
# Construct: expressed in transfected cells; host or cells: HEK293
# Sequence (P50406 whole entry): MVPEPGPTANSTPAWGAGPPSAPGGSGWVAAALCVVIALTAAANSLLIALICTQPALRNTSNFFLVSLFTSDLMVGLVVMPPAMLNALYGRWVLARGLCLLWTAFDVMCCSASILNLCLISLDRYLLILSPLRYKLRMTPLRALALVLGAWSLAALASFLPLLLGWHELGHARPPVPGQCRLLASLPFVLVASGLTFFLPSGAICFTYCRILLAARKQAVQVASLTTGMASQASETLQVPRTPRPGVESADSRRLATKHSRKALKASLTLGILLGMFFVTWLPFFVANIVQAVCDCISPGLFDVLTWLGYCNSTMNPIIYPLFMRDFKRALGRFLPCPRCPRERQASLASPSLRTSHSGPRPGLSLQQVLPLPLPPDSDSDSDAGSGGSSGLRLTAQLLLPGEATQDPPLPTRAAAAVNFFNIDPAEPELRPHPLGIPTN
# protocolNotes: 5-HT6 receptor binding assay (displacement of [3H]-LSD)
pKi: −log10 of the molar value. Structures can show the parent of a compound that is named as a salt.
propertyMeasured: pKi

compound	experimentalResult
Cc1ccc(NS(=O)(=O)c2cccc(OC(F)F)c2)cc1N1CCNCC1 [Example 1, hydrochloride]	> 7.70

---

# testedSystem: h-5-HT6 receptor (Homo sapiens, UniProt P50406)
# Construct: expressed in transfected cells; host or cells: HEK293
# protocolNotes: 5-HT6 receptor binding assay (displacement of [3H]-LSD)
# assayConditions: membranes of HEK293 cells stably expressing h-5-HT6 receptor, 1 nM [3H]-LSD; read-out: Ki (5HT6)
Where a name gives a salt, the structure may show the parent alone.
Recorded Ki for the following molecules

molecule	Ki
Cc1ccc(N(C)S(=O)(=O)c2cccc(OC(F)F)c2)cc1N1CCCNCC1 [Example 3, hydrochloride]	< 0.25 µM
Cc1ccc(NS(=O)(=O)c2cccc(OC(F)F)c2)cc1N1CCCNCC1 [Example 4, hydrochloride]	< 0.02 µM
Cc1ccc(NS(=O)(=O)c2ccccc2OC(F)F)cc1N1CCCN(C)CC1 [Example 5, hydrochloride]	< 0.02 µM
Cc1ccc(NS(=O)(=O)c2ccccc2OC(F)F)cc1N1CCCNCC1 [Example 2, hydrochloride]	< 0.05 µM
